- Study target: MAP kinase-interacting serine/threonine-protein kinase 1 (Homo sapiens)
- Sequence (Q9BUB5 whole entry, looked up): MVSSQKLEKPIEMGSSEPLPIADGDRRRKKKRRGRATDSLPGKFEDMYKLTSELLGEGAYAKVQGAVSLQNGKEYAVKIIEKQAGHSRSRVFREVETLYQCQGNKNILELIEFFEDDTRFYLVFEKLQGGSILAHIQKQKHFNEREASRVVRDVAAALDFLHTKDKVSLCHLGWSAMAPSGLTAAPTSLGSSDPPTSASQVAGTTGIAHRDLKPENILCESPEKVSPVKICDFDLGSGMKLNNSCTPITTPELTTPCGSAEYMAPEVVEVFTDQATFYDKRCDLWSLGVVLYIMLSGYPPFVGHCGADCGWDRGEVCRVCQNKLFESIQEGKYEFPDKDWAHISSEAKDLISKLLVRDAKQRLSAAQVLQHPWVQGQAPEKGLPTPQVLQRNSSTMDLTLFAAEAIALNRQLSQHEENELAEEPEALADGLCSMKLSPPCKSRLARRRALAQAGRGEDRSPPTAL
- Experimental protocol: Inhibition of MNK1 (unknown origin) at 100 nM incubated for 60 mins by HTRF assay
Attribute measured: inhibition

                                        mol                              study_target  attribute_measured  test_result
0  Cc1cccc(Nc2cc(C)c3n(c2=O)C2(CCCCC2)NC3=O)n1  MAP kinase-interacting serine/threonine-protein kinase 1 (Homo sapiens)          inhibition        19.8%
1  Cc1cc(Nc2cc(C)c3n(c2=O)C2(CCCCC2)NC3=O)ccn1  MAP kinase-interacting serine/threonine-protein kinase 1 (Homo sapiens)          inhibition        26.8%
2  Cc1cc(Nc2cc(N3CCN(CCN(C)C)CC3)ncn2)c(=O)n2c1C(=O)NC21CCCCC1  MAP kinase-interacting serine/threonine-protein kinase 1 (Homo sapiens)          inhibition        77.2%
3  Cc1cc(Nc2cc(N3CCN(C)CC3)ncn2)c(=O)n2c1C(=O)NC21CCCCC1  MAP kinase-interacting serine/threonine-protein kinase 1 (Homo sapiens)          inhibition        54.4%
4  Cc1cc(Nc2ccncc2)c(=O)n2c1C(=O)NC21CCCCC1  MAP kinase-interacting serine/threonine-protein kinase 1 (Homo sapiens)          inhibition        60.7%
5  Cc1cc(Nc2ccccn2)c(=O)n2c1C(=O)NC21CCCCC1  MAP kinase-interacting serine/threonine-protein kinase 1 (Homo sapiens)          inhibition        19.5%
6  Cc1cc(Nc2cncc(N)n2)c(=O)n2c1C(=O)NC21CCCCC1  MAP kinase-interacting serine/threonine-protein kinase 1 (Homo sapiens)          inhibition        25.3%
7  Cc1cc(Nc2nccc(N)n2)c(=O)n2c1C(=O)NC21CCCCC1  MAP kinase-interacting serine/threonine-protein kinase 1 (Homo sapiens)          inhibition        33.2%
8  Cc1cc(Nc2cn(C)nc2N)c(=O)n2c1C(=O)NC21CCCCC1  MAP kinase-interacting serine/threonine-protein kinase 1 (Homo sapiens)          inhibition        53.2%

Origin of values: ChEMBL document CHEMBL4665632
